B1: F-BAR and double SH3 domains protein 1, residues 467 to 528; numbered along this chain, Q86WN1 (parent)
chain: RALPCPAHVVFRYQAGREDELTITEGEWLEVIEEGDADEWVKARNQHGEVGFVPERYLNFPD

Variants of: B1
Experiment: abundance fitness (aPCA) (normalised: wild type 0, dead -1); higher = more abundant; growth selection in yeast, the domain comes from the species named
Settings: Homo sapiens
READOUT NAME: abundance fitness
Output: the number by itself.

Examples from the recorded data:
VARIANT STRING: V9H
abundance fitness: -0.85
--
VARIANT STRING: H8T
abundance fitness: -0.213

# lookup: abundance fitness of H8N
-0.392

Same read-out for E25D ?
-0.014

Same read-out for A7T ?
-0.917

Same read-out for V9Q ?
-0.607

Same read-out for E30I ?
-0.353

Same read-out for H8G ?
-0.651

Same read-out for A43G ?
-0.299

Same read-out for T22K ?
-0.686

Same read-out for A7S ?
-0.631
